Tested on: HCC2998
Test: cells
Set-up: CellTiter-Glo 2.0 luminescence proliferation/viability assay, single agents, human tumour cell line panel
Settings: Homo sapiens, HCC 2998, 96 h; single agent; read-out: IC50 SMACm
measured parameter: IC50 (µM)
Give bare numbers, in µM.

q: Return IC50 for the following compound: CN[C@@H](C)C(=O)Nc1ccc(-c2c(-c3cccnc3OC)nc3cc(C)ccn23)c(C#Cc2ccc3c(C)nccc3c2)n1
a: 3.06

###

System: SK-LU-1
Assay: cells
Parameters: CellTiter-Glo 2.0 luminescence proliferation/viability assay, single agents, human tumour cell line panel
Conditions: Homo sapiens, SK-LU-1, 96 h; single agent; read-out: IC50 SMACm
Method: The effect of BETi, SMACm alone or in combination cell viability was determined using a 96-h CellTiter-Glo2.0 proliferation assay. Cells were seeded in assay plates and placed at 37°C with 5% CO2 for twenty-four hours before treatment. […] Cell viability was measured by luminescence analysis using luminescence read on Envision plate readers (PerkinElmer). […] Cell viability was measured by luminescence analysis using luminescence read on Tecan Plate reader. […]
measured parameter: IC50 (nM)
Answers are plain numbers, in nM.

q: Provide measured IC50 value, entry: CN[C@@H](C)C(=O)Nc1ccc(-c2c(-c3cccnc3OC)nc3cc(C)ccn23)c(C#Cc2ccc3c(C)nccc3c2)n1 [SMACm, BI 891065]
a: 495

###

Tested on: CAPAN-2
Assay: cells
Parameters: CellTiter-Glo 2.0 luminescence proliferation/viability assay, single agents, human tumour cell line panel
Conditions: Homo sapiens, Capan-2, 96 h; single agent; read-out: IC50 SMACm
measured parameter: IC50 (µM)
Give bare numbers, in µM.

q: State its IC50: CN[C@@H](C)C(=O)Nc1ccc(-c2c(-c3cccnc3OC)nc3cc(C)ccn23)c(C#Cc2ccc3c(C)nccc3c2)n1
a: 8.59

###

Test system: C125PM
Assay: cells
Design: CellTiter-Glo 2.0 luminescence proliferation/viability assay, single agents, human tumour cell line panel
Conditions: 96 h; single agent; read-out: IC50 SMACm
measured parameter: pIC50
One number for each entry, as −log10 of the molar value.

q: Dear colleague, please send me the reported pIC50 for CN[C@@H](C)C(=O)Nc1ccc(-c2c(-c3cccnc3OC)nc3cc(C)ccn23)c(C#Cc2ccc3c(C)nccc3c2)n1 when you can.
a: 5.90

###

Tested on: AGS
Assay: cells
Parameters: CellTiter-Glo 2.0 luminescence proliferation/viability assay, single agents, human tumour cell line panel
Settings: Homo sapiens, AGS, 96 h; single agent; read-out: IC50 SMACm
measured parameter: IC50 (µM)
One number for each entry, in µM.

q: Read off the recorded IC50 for CN[C@@H](C)C(=O)Nc1ccc(-c2c(-c3cccnc3OC)nc3cc(C)ccn23)c(C#Cc2ccc3c(C)nccc3c2)n1
a: 4.06

###

Tested on: HRA16
Assay: cells
Parameters: CellTiter-Glo 2.0 luminescence proliferation/viability assay, single agents, human tumour cell line panel
Settings: 96 h; single agent; read-out: IC50 SMACm
measured parameter: IC50 (µM)
Numbers only, in µM.

q: // Input: CN[C@@H](C)C(=O)Nc1ccc(-c2c(-c3cccnc3OC)nc3cc(C)ccn23)c(C#Cc2ccc3c(C)nccc3c2)n1 . Output its IC50 only.
a: 3.99

###

Tested on: Calu-6
Assay: cells
Parameters: CellTiter-Glo 2.0 luminescence proliferation/viability assay, single agents, human tumour cell line panel
Conditions: Homo sapiens, Calu-6, 96 h; single agent; read-out: IC50 SMACm
measured parameter: IC50
The number alone won't do; follow it with the unit.

q: Supply measured IC50 of CN[C@@H](C)C(=O)Nc1ccc(-c2c(-c3cccnc3OC)nc3cc(C)ccn23)c(C#Cc2ccc3c(C)nccc3c2)n1 [SMACm, BI 891065] in your reply.
a: 4.93 µM

Source of measurements: paper PMC12490239
